Assignment: determine reported Vd for the given compounds.
Test: clinical
Conditions: human, in vivo
Description: Observed volume of distribution
Write it as a number; the unit L/kg goes unstated.

Specify reported Vd for the compound shown: CC[C@H]1OC(=O)[C@H](C)[C@@H](O[C@H]2C[C@@](C)(OC)[C@@H](O)[C@H](C)O2)[C@H](C)[C@@H](O[C@@H]2O[C@H](C)C[C@H](N(C)C)[C@H]2O)[C@](C)(O)C[C@@H](C)CN(C)[C@H](C)[C@@H](O)[C@]1(C)O 33

Return reported Vd. Input compound: O=c1n(CCCN2CCN(c3cccc(Cl)c3)CC2)nc2ccccn12 1

Give me measured Vd, please, for this compound: CCN(C)C(=O)Oc1cccc([C@H](C)N(C)C)c1 2.2

Entry C[C@@H](c1ncncc1F)[C@](O)(Cn1cncn1)c1ccc(F)cc1F needs its Vd filled in; supply it. 4.6

Give a short answer stating reported Vd for O=c1[nH]c2ccccc2n1CCCN1CCC(n2c(=O)[nH]c3cc(Cl)ccc32)CC1 . 5.7

Read off the recorded Vd for OC(CNCC(O)C1CCc2cc(F)ccc2O1)C1CCc2cc(F)ccc2O1 (centres undefined) 11.2

Fill in Vd for record COCCc1ccc(OCC(O)CNC(C)C)cc1 (centres undefined) 3.73

Supply recorded Vd for CN(C)CCCN1c2ccccc2CCc2ccc(Cl)cc21 here. 20

Give the value of Vd reported for the following: CC(C)c1cccc(C(C)C)c1O 3.9

====

Assay: clinical
Settings: human, in vivo
Please go through the items and note down their Vd.
Report the value in L/kg with no unit label.

Query Vd for CCN1CCC[C@H]1CNC(=O)c1c(OC)ccc(Br)c1OC [REMOXIPRIDE] 0.64

Provide measured Vd value, entry: O=C1CN=C(c2ccccc2Cl)c2cc(Cl)ccc2N1 1.7

Provide one value: measured Vd of C[C@]12CCC(=O)C=C1CC[C@@H]1[C@@H]2[C@@H](O)C[C@@]2(C)[C@H]1CC[C@]2(O)C(=O)CO [HYDROCORTISONE] 0.44

Given CN(C)CCCN1c2ccccc2Sc2ccccc21 , respond with its Vd. 7.5

Return reported Vd. Input molecule: CCN(CC)CCCC(C)Nc1c2ccc(Cl)cc2nc2ccc(OC)cc12 (stereo not given) 124

Indicate the recorded Vd value for this molecule: CNCCCC12CCC(c3ccccc31)c1ccccc12 43

Provide Vd value for the following molecule: CN(C)CCCC1(c2ccc(F)cc2)OCc2cc(C#N)ccc21 (stereo not given) 13

# return recorded Vd for entry Nc1c2c(nc3ccccc13)CCCC2 8.22

Respond only with Vd recorded for CCOC(=O)c1ncn2c1CN(C)C(=O)c1cc(F)ccc1-2 1.1

Note down Vd recorded for Cc1nnc2n1-c1ccc(Cl)cc1C(c1ccccc1Cl)=NC2 0.67
